- assay-name: yeast display, Sf9 membrane polyspecificity reagent, FACS + sequencing; frameworks hold sequencing errors
measure-name: polyreactivity (PSR sort gate)

>>> recorded_value("QVQLVESGGGLVQAGGSLRLSCAASGIIFGWNTMGWYRQAPGKEREFVAAISSSGGSTYADSVKGRFTISRDNAKNTVYLQMNSLKPEDTAVYYCAASKQPGSFEFDYWGQGTQVTVSS")
"high polyreactivity"
>>> recorded_value("QVQLVESGGGLVQAGGSLRLSCAASGRTSLGNAMGWYRQAPGKERELVAAISGSGGSTYYADSVKGRFTISRDNAKNTVYLQMNSLKPEDTAVYYCNKKLYGYQHYYWYYYWGQGTQVTVSS")
"high polyreactivity"

* * *

- assay-name: yeast display, Sf9 membrane polyspecificity reagent, FACS + sequencing; frameworks hold sequencing errors
measure-name: polyreactivity (PSR sort gate)

Solved entries (count: 4):
>>> recorded_value("QVQLVESGGGLVQAGGSLRLSCAASGRTFYYYAMGWYRQAPGKERELVAGISWSAGSTYYADSVKGRFTISRDYAKNTVYLQMNSLKPEDTAVYYCAARYWQSYRSQVTHSSTLDYWGQGTQVTVSS")
"low polyreactivity"
>>> recorded_value("QVQLVESGGGLVQAGGSLRLSCDASGSTFYLYKGWYRQAPGKERELVAAITSGGRTYYADSVKGRFTISRDNAKNSVYLQMNSLKPVVSAVYYCARPYSRAYDYWGEGTQVTVSS")
"high polyreactivity"
>>> recorded_value("QVQLVESGGGLVHAGGSLRLSCAAYGRTYGTNAMGWYRQAPVKERELVAAIRRGGSRTYYADSVKGRFTISRDYAKNTVYLPMNSLKPEDTAVYYCAAKLRAYVDPFEYWGQGTQVTVSS")
"low polyreactivity"
>>> recorded_value("QVQLVESGGGLVQAGGSLRLSCADSGSTFYRYAMGWYRPAPGKERELVAAISKRGGSTYYADSVKGRFTISRDNAKNTVYLQMNSLKPEDTAVYYCAADPFHYGGGDDYWGQGTQVTVSS")
"high polyreactivity"

Consider the record given below.
Query block: Item under review: QVQLVESGGGLVQAGGSLRLSCAASGRIFGPYAMGWYRQAPGKERELVATITWSGVSTYYADSVKGRFTISRDNAKNTVYLQMNSLKPEDTAVYYCNAKRTGQWFLHVPVYYWGQGTQVTVSS . Reported polyreactivity (PSR sort gate)?
Result block: low polyreactivity

* * *

- assay-name: yeast display, Sf9 membrane polyspecificity reagent, FACS + sequencing; frameworks hold sequencing errors
measure-name: polyreactivity (PSR sort gate)

>>> recorded_value("QVQLVESGGGLVQAGGSLRLSCAASGSTFWSYAMGWSRQAPGKERELVAAITDSGGSTYYADSVKGRFTISRDNAKNTVYLQLNSLKPEDTAVYYCAVDSRYTAPLRPLGPFDYWGQGTQVTVSS")
"low polyreactivity"
>>> recorded_value("HVQLVESGGGLVPAGGSLRLSCAASGSTFIGYARGWYRQAPGKERELVAAISWSGGRTYYADSVKGRFTISRDNAKNTVYLQMNSLKPEDTAVYYCNTVPYRISVQFNYWGQGTQVTVSS")
"high polyreactivity"
>>> recorded_value("QVQLVESGGGLVQAGGSLRLSCAASAYAMGWYRQAPGKERELVAAITVSGGSTHYADSVKGRFTISRDNAKNTVYLQMNSLKPEDTAVYYCNARYDVWYYYWGQGTQVTVSS")
"low polyreactivity"
>>> recorded_value("QVHLVESGGGLVQAGGSLRLSCAASGSIFGTYAMGWYRQPPGKESELVAAITSSGGSTYYADSVKGRFTISRDNAKNTVYLQMNSLKPEDTAVYYCAAYLRIRVGVPVRTYYYWGQGTQVTVSS")
"high polyreactivity"
>>> recorded_value("QVQLVESGGGLVQAGGSLRLSCAASGRTLRAYAMGWYRQAPGKERELVAAITWSGGSTYYADSVKGRFTISRDTAKNTVYLQMNSLKPEDTAVYYCNARSYPDLYDYWGQGTQVTVSS")
"low polyreactivity"
>>> recorded_value("QVQLVESGGGLVQAGGSLRLSCAASGRIFVIYGMGWYRQAPGKERELVATISWSGSSTSYADSVKGRFTISRDNAKNTVYLQMNSLKPEDTAVYYCAAYTWYSRHRMNYWGQGTQVTVSS")
"high polyreactivity"
>>> recorded_value("QVQLVESGGGLVQAGGSHRLSCAASGRTFSYYAMGWYRQAPGKEREMDADISKSGGRTYYADSLKGRFTISRDNAKNTVYLQMNSLKPEDTAVYYCAAGFYWAVYYSVDYWGQGTQVTVSS")
"high polyreactivity"
>>> recorded_value("QVQLVESGGGLVQAGGSLRLSCAASGYTFFYYAMGWSRQAPGKERELVAIDLNGGSTYYADSVKGRFTISRDNAKNTVYLQMNSLKPEDTAVSSCAATRPWYGDVGYLEDYWGQGTQVTVSS")
"low polyreactivity"
>>> recorded_value("QVQLVESGGGLVQAGGSLRLSCAASGITFYGYDMGWYRQAPGKERELVAAITSDGITNYADSVKGRFTISRDNAKNTVYLQMNSLKPEDTAVYYCAADLSFYRRYEWYYYWGQGTQVTVSS")
"low polyreactivity"
>>> recorded_value("QVQLVESGGGLVQAGGSLRLSCAASGFTITNYAMGWYRQAPGKERELVAAISTGGGRTYYADSVKGRFTISRDNAKNTVYLQMYSLKPEDTAVYYCAVVPYNISKTEQPGMDYWGQGTQVTVST")
"high polyreactivity"

Consider the record given below.
Query block: Item under review: QVHLVESGGGLVQAGGSLRLICAASGRIFIVYAMGWYRQAPGKERELVAVITGGGSTNYADSVKGRFTISRDNAKNSVYLQMNSLKPEDTAVYYCATEGYGHGGETVGGVYSDLGYWGQGTQVTVSS . Reported polyreactivity (PSR sort gate)?
Result block: low polyreactivity
